Reference source: ChEMBL document CHEMBL5357034

Exercise: state measured MIC for each of the molecules provided.
system: Staphylococcus aureus; assay: Antimicrobial activity against methicillin-resistant Staphylococcus aureus ATCC 33591 assessed as inhibition of microbial growth incubated for 24 hrs by broth microdilution method; type: functional
Square brackets hold non-standard residues; d marks the D form. Peptide text beside a SMILES is read from it. NMeA = CN[C@@H](C)C(=O)O

Item: CC(C)Cc1ncc([C@@H](O)C(C)C)n(O)c1=O | MIC: 16 µg/mL

Item: CC[C@H](C)[C@@H]1NC(=O)[C@H]([C@@H](C)O)NC(=O)[C@H](Cc2ccccc2)NC(=O)[C@H](C)N(C)C1=O (cyclo(FTI[NMeA])) | MIC: > 128 µg/mL

Item: CC[C@H](C)[C@@H]1NC(=O)[C@H]([C@@H](C)O)NC(=O)[C@H](Cc2ccc(OC)cc2)NC(=O)[C@@H]2CCCN2C1=O (cyclo(IPY(Me)T)) | MIC: > 128 µg/mL

Item: CO[C@H]1/C=C/O[C@@]2(C)Oc3c(C)c(O)c4c(O)c(c(/C=N/N5CCN(C)CC5)c(O)c4c3C2=O)NC(=O)/C(C)=C\C=C\[C@H](C)[C@H](O)[C@@H](C)[C@@H](O)[C@@H](C)[C@H](OC(C)=O)[C@@H]1C [RIFAMPIN] | MIC: < 0.25 µg/mL

Item: CC[C@H](C)[C@@H]1NC(=O)[C@H]([C@@H](C)O)NC(=O)[C@H](Cc2ccc(OC)cc2)NC(=O)[C@H](C)N(C)C1=O (cyclo(I[NMeA]Y(Me)T)) | MIC: > 128 µg/mL

Item: COc1ccc(C[C@@H]2NC(=O)[C@H](C)N(C)C(=O)[C@H](CC(C)C)NC(=O)[C@H]([C@@H](C)O)NC2=O)cc1 (cyclo(L[NMeA]Y(Me)T)) | MIC: > 128 µg/mL

Item: CC(C)Cc1cnc(CC(C)C)c(=O)[nH]1 | MIC: > 128 µg/mL

* * *

Exercise: state measured MIC for each of the compounds provided.
system: Staphylococcus aureus; assay: Antimicrobial activity against methicillin-resistant Staphylococcus aureus ATCC R6101 assessed as inhibition of microbial growth incubated for 24 hrs by broth microdilution method; type: functional
Peptide text beside a SMILES is read from it.

Item: CC[C@H](C)[C@@H]1NC(=O)[C@H]([C@@H](C)O)NC(=O)[C@H](Cc2ccc(OC)cc2)NC(=O)[C@@H]2CCCN2C1=O (cyclo(IPY(Me)T)) | MIC: > 128 µg/mL

Item: CN[C@H](CC(C)C)C(=O)N[C@H]1C(=O)N[C@@H](CC(N)=O)C(=O)N[C@H]2C(=O)N[C@H]3C(=O)N[C@H](C(=O)N[C@H](C(=O)O)c4cc(O)cc(O)c4-c4cc3ccc4O)[C@H](O)c3ccc(c(Cl)c3)Oc3cc2cc(c3O[C@@H]2O[C@H](CO)[C@@H](O)[C@H](O)[C@H]2O[C@H]2C[C@](C)(N)[C@H](O)[C@H](C)O2)Oc2ccc(cc2Cl)[C@H]1O | MIC: > 128 µg/mL

* * *

Exercise: state measured inhibition at 10 µM for each of the compounds provided.
system: RAW264.7; test: Anti-inflammatory activity in LPS-induced mouse RAW264.7 cells assessed as inhibition of TNF-alpha production at 10 uM preincubated with compound for 24 hrs followed by compound replacement with DMEM media and measured 6 hrs after LPS stimulation by qRT-PCR analysis relative to control; type: functional
Square brackets hold non-standard residues; d marks the D form. Peptide text beside a SMILES is read from it. NMeA = CN[C@@H](C)C(=O)O
Write the numeric value and append its unit.

Tested on RAW264.7: CC[C@H](C)[C@@H]1NC(=O)[C@H]([C@@H](C)O)NC(=O)[C@H](Cc2ccc(OC)cc2)NC(=O)[C@@H]2CCCN2C1=O (cyclo(IPY(Me)T)) . Observed inhibition at 10 µM: 16%

Tested on RAW264.7: COc1ccc(C[C@@H]2NC(=O)[C@H](C)N(C)C(=O)[C@H](CC(C)C)NC(=O)[C@H]([C@@H](C)O)NC2=O)cc1 (cyclo(L[NMeA]Y(Me)T)) . Observed inhibition at 10 µM: 15%

Tested on RAW264.7: CC[C@H](C)[C@@H]1NC(=O)[C@H](C)NC(=O)[C@H](Cc2ccc(OC)cc2)NC(=O)[C@H](C)N(C)C1=O (cyclo(AI[NMeA]Y(Me))) . Observed inhibition at 10 µM: 6.6%

Tested on RAW264.7: CC[C@H](C)[C@@H]1NC(=O)[C@H]([C@@H](C)O)NC(=O)[C@H](Cc2ccccc2)NC(=O)[C@H](C)N(C)C1=O (cyclo(FTI[NMeA])) . Observed inhibition at 10 µM: 13%

Tested on RAW264.7: CC[C@H](C)[C@@H]1NC(=O)[C@H]([C@@H](C)O)NC(=O)[C@H](Cc2ccc(OC)cc2)NC(=O)[C@H](C)N(C)C1=O (cyclo(I[NMeA]Y(Me)T)) . Observed inhibition at 10 µM: 24%

* * *

test system: RAW264.7; assay: Anti-inflammatory activity in LPS-induced mouse RAW264.7 cells assessed as inhibition of IL-6 production at 10 uM preincubated with compound for 24 hrs followed by compound replacement with DMEM media and measured 6 hrs after LPS stimulation by qRT-PCR analysis relative to control; format: functional
Square brackets hold non-standard residues; d marks the D form. Peptide text beside a SMILES is read from it. NMeA = CN[C@@H](C)C(=O)O
measured.property: inhibition at 10 µM (%)
Give the value, in units of %, as a plain number.

Item: COc1ccc(C[C@@H]2NC(=O)[C@H](C)N(C)C(=O)[C@H](CC(C)C)NC(=O)[C@H]([C@@H](C)O)NC2=O)cc1 (cyclo(L[NMeA]Y(Me)T)) | inhibition at 10 µM: 55

Item: CC[C@H](C)[C@@H]1NC(=O)[C@H]([C@@H](C)O)NC(=O)[C@H](Cc2ccc(OC)cc2)NC(=O)[C@@H]2CCCN2C1=O (cyclo(IPY(Me)T)) | inhibition at 10 µM: 63

Item: CC[C@H](C)[C@@H]1NC(=O)[C@H](C)NC(=O)[C@H](Cc2ccc(OC)cc2)NC(=O)[C@H](C)N(C)C1=O (cyclo(AI[NMeA]Y(Me))) | inhibition at 10 µM: 67

Item: CC[C@H](C)[C@@H]1NC(=O)[C@H]([C@@H](C)O)NC(=O)[C@H](Cc2ccccc2)NC(=O)[C@H](C)N(C)C1=O (cyclo(FTI[NMeA])) | inhibition at 10 µM: 61

Item: CC[C@H](C)[C@@H]1NC(=O)[C@H]([C@@H](C)O)NC(=O)[C@H](Cc2ccc(OC)cc2)NC(=O)[C@H](C)N(C)C1=O (cyclo(I[NMeA]Y(Me)T)) | inhibition at 10 µM: 55

* * *

system: Staphylococcus aureus; assay: Antimicrobial activity against methicillin-resistant Staphylococcus aureus ATCC R6101 assessed as inhibition of microbial growth incubated for 24 hrs by broth microdilution method; assay type: functional
Square brackets hold non-standard residues; d marks the D form. Peptide text beside a SMILES is read from it. NMeA = CN[C@@H](C)C(=O)O
measured.property: MIC

Item: CC[C@H](C)[C@@H]1NC(=O)[C@H]([C@@H](C)O)NC(=O)[C@H](Cc2ccccc2)NC(=O)[C@H](C)N(C)C1=O (cyclo(FTI[NMeA])) | MIC: > 128 mg/L

Item: CC(C)Cc1ncc([C@@H](O)C(C)C)n(O)c1=O | MIC: > 128 mg/L

Item: CO[C@H]1/C=C/O[C@@]2(C)Oc3c(C)c(O)c4c(O)c(c(/C=N/N5CCN(C)CC5)c(O)c4c3C2=O)NC(=O)/C(C)=C\C=C\[C@H](C)[C@H](O)[C@@H](C)[C@@H](O)[C@@H](C)[C@H](OC(C)=O)[C@@H]1C | MIC: 8 mg/L

Item: CC[C@H](C)[C@@H]1NC(=O)[C@H]([C@@H](C)O)NC(=O)[C@H](Cc2ccc(OC)cc2)NC(=O)[C@H](C)N(C)C1=O (cyclo(I[NMeA]Y(Me)T)) | MIC: > 128 mg/L

Item: CC(C)Cc1cnc(CC(C)C)c(=O)[nH]1 | MIC: > 128 mg/L

Item: COc1ccc(C[C@@H]2NC(=O)[C@H](C)N(C)C(=O)[C@H](CC(C)C)NC(=O)[C@H]([C@@H](C)O)NC2=O)cc1 (cyclo(L[NMeA]Y(Me)T)) | MIC: > 128 mg/L
